I'd be grateful if you could share measured IC50 for these entries.
MEASURED_TARGET: GIPR (CHO-K1-hGIPR cells) (Homo sapiens)
Construct: host or cells: CHO-K1
Sequence (P48546 22-466): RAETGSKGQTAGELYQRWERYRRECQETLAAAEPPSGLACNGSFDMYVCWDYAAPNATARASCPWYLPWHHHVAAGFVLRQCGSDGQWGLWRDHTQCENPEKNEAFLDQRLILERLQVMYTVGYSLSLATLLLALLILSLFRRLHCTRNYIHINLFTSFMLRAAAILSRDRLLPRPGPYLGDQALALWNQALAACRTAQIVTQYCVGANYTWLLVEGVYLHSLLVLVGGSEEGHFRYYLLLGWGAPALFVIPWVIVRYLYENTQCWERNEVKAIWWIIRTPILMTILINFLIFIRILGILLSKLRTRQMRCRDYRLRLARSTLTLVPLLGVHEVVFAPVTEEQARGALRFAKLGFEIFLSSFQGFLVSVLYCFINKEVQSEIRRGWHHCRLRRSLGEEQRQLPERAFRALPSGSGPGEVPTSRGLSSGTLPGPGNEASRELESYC
PROTOCOL: FACS binding assay
DETAILS: competition with 20 nM GIP-057, 4° C. for 1 hour, read-out: pIC50 Category (converted)
*1 amine or outer side, *2 acyl side, *3 side chain or, on linkers, in order; H or OH if unused. Where a SMILES comes first, the peptide text is derived from it. Bridges are numbered along the chain shown (N, C = ends). [ ]: non-standard residue; d: D form. 1Nal = N[C@@H](Cc1cccc2ccccc12)C(=O)O; mXylylene = c1cc(C[*:1])cc(C[*:2])c1; Aib = CC(C)(N)C(=O)O

For the 2 molecules below, give their IC50 values.
1. CC[C@H](C)[C@@H]1NC(=O)[C@H](CC(C)C)NC(=O)C(C)(C)NC(=O)[C@@H](NC(=O)[C@H](Cc2ccccc2)NC(=O)[C@H](CCC(=O)O)NC(=O)[C@@H]2CCCN2C(=O)[C@H](Cc2cccc3ccccc23)NC(=O)[C@H](Cc2c[nH]c3ccccc23)NC(=O)[C@H](CC(=O)O)NC(C)=O)CSCc2cccc(c2)CSC[C@@H](C(N)=O)NC1=O [GIP-344] (Ac-DW[1Nal]PEFC[Aib]LIC-NH2; linker 7-11 via mXylylene)
2. CC[C@H](C)[C@@H]1NC(=O)[C@H](CC(C)C)NC(=O)[C@H](C)NC(=O)[C@@H](NC(=O)[C@H](CC(C)C)NC(=O)[C@H](CCC(=O)O)NC(=O)[C@H]2CCCN2C(=O)[C@H](Cc2c[nH]c3ccccc23)NC(=O)[C@H](Cc2c[nH]c3ccccc23)NC(=O)[C@H](CC(=O)O)NC(=O)[C@H](Cc2ccc(O)cc2)NC(=O)[C@@H](N)CCSC)CSCc2cccc(c2)CSC[C@@H](C(N)=O)NC1=O [GIP-328] (H-MYDWW[dP]ELCALIC-NH2; linker 9-13 via mXylylene)

["> 1000 nM", "> 1000 nM"]
